- test_target: Maize (Zea mays) protoporphyrinogen oxidase (PPO), wild type
- protocol_description: PPO enzyme assay (plastid extract)
- stated_conditions: 3 μM protogen; pH 7.4, 30° C.; read-out: S-3100 IC50
measured_metric: IC50 (nM)
Please state the figure in nM; there is no need to write the unit.

Query block: For the record CCOC(=O)COc1ncccc1Oc1cc(-n2c(=O)cc(C(F)(F)F)n(C)c2=O)c(F)cc1Cl , what value of IC50 is listed for Maize (Zea mays) protoporphyrinogen oxidase (PPO), wild type?
Result block: 3
